Measured values drawn from the Immune Epitope Database (IEDB) for this set.

Target: HLA-A*02:01
Test: IEDB peptide-MHC binding, purified MHC/competitive/fluorescence; filed as Kd, often an IC50 or EC50 that approximates it; bounds were set here for any values at or beyond the usual limits of such assays
Settings: source organism: Francisella tularensis subsp. holarctica OSU18
observable: Kd (nM)
Lab book: enter the figure in nM, no units written.

Give reported Kd for `FGLLPEHYV` (HLA-A*02:01) 120

###

Biological target: HLA-B*27:05
Assay: IEDB peptide-MHC binding, purified MHC/competitive/fluorescence; filed as Kd, often an IC50 or EC50 that approximates it; bounds were set here for any values at or beyond the usual limits of such assays
Conditions: source organism: Salmonella enterica subsp. enterica serovar Typhi
observable: Kd (nM)
Lab book: enter the figure in nM, no units written.

Quick one: give measured Kd for `KQLELFWVI` 66.1

###

Form field: Kd (one value per entry).
Target: HLA-A*02:01
Assay: IEDB peptide-MHC binding, purified MHC/competitive/radioactivity; filed as Kd, often an IC50 or EC50 that approximates it; bounds were set here for any values at or beyond the usual limits of such assays
Conditions: source organism: Dengue virus 4 Philippines/H241/1956
Lab book: enter the figure in µM, no units written.

In the examples that follow, each entry is paired with its recorded Kd.
residue_sequence=TSMAMTCIAV observable=Kd data_value=0.0123
residue_sequence=ILIGFLVLWI observable=Kd data_value=0.0971

Give reported Kd for `FLDLPLPWAA` (HLA-A*02:01) 0.00419

###

Target: HLA-A*29:02
Assay: IEDB peptide-MHC binding, purified MHC/direct/fluorescence; filed as Kd, often an IC50 or EC50 that approximates it; bounds were set here for any values at or beyond the usual limits of such assays
Conditions: source organism: Zaire ebolavirus
Form field: Kd (one value per entry).

residue_sequence=KCNPNLHYW observable=Kd data_value="≥ 20 µM"

The record that follows has no Kd shown yet.
Quick one: give measured Kd for `KRLQILGYL` ≥ 20 µM

###

Target: HLA-A*69:01
Assay: IEDB peptide-MHC binding, purified MHC/direct/fluorescence; filed as Kd, often an IC50 or EC50 that approximates it; bounds were set here for any values at or beyond the usual limits of such assays
Settings: source organism: Yersinia pestis
pKd: −log10 of the molar value.
observable: pKd

Quick one: give measured pKd for `VPRVHNQPQ` ≤ 4.70

###

Biological target: HLA-B*15:01
Assay: IEDB peptide-MHC binding, purified MHC/competitive/fluorescence; bounds were set here for any values at or beyond the usual limits of such assays
Conditions: source organism: Zaire ebolavirus
observable: IC50

In the examples that follow, each entry is paired with its recorded IC50.
residue_sequence=RLMRTNFLI system_name=HLA-B*15:01 observable=IC50 data_value="11.4 µM"
residue_sequence=LSAIALGVA system_name=HLA-B*15:01 observable=IC50 data_value="≥ 140 µM"

Quick one: give measured IC50 for `HILRSQGPF` 12.8 µM

Quick one: give measured IC50 for `GYYSTTIRY` 4.56 µM

Quick one: give measured IC50 for `LMNFHQKKN` ≥ 265 µM

###

Target: HLA-A*02:03
Assay: IEDB peptide-MHC binding, purified MHC/direct/fluorescence; filed as Kd, often an IC50 or EC50 that approximates it; bounds were set here for any values at or beyond the usual limits of such assays
Settings: source organism: Brucella suis 1330
observable: Kd

Quick one: give measured Kd for `QAHMGIAGL` ≥ 20 µM
